Test system: K98450-129-R-PDC complex spheroid growth, percent test/control;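 note: luminescence used as a proxy for viable cell amount; spheroids exposed to agents for seven days before the viability readout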
test protocol: Anticancer human tumor K98450-129-R-PDC patient-derived colon adenocarcinoma cell line growth inhibition [RAS]
experimental context: second compound 0.003 µM; first compound 1 µM; active compounds read low
property measured: viability, T/C (%)
Field: numeric (%). Do not append units.

Observe how each entry below is paired with its result.
# molecule, system tested, viability, T/C [%]
records = [
    ("CC1(O)CCCC1n1c(=O)c(C(F)F)cc2cnc(NC3CCN(S(C)(=O)=O)CC3)nc21 (centres undefined) + CCn1c(-c2cccnc2C(C)OC)c2c3cc(ccc31)N1CCOC(CC(NC(=O)C(C(C)C)N(C)C(=O)C3(F)CCN(C(=O)C#CC(C)(C)N(C)C)CC3)C(=O)N3CCCC(N3)C(=O)OCC(C)(C)C2)C1", "K98450-129-R-PDC complex spheroid growth, percent test/control", 38.6),
    ("Nc1ccn(C2OC(CO)C(O)C2(F)F)c(=O)n1 (centres undefined) + CCn1c(-c2cc(N3CCN(C)CC3)cnc2C(C)OC)c2c3cc(ccc31)-c1csc(n1)CC(NC(=O)C1CC1C)C(=O)N1CCCC(N1)C(=O)OCC(C)(C)C2", "K98450-129-R-PDC complex spheroid growth, percent test/control", 37.3),
    ("C[C@@H](NC(=O)c1ncnc(N)c1Cl)c1ncc(C(=O)Nc2cc(C(F)(F)F)c(Cl)cn2)s1 + CCn1c(-c2cccnc2C(C)OC)c2c3cc(ccc31)N1CCOC(CC(NC(=O)C(C(C)C)N(C)C(=O)C3(F)CCN(C(=O)C#CC(C)(C)N(C)C)CC3)C(=O)N3CCCC(N3)C(=O)OCC(C)(C)C2)C1", "K98450-129-R-PDC complex spheroid growth, percent test/control", 61.6),
]

Any idea what viability, T/C was measured for CCC(CC)c1cc(NC2CCC(N)C2)n2nccc2n1 (centres undefined) + CCn1c(-c2cccnc2C(C)OC)c2c3cc(ccc31)N1CCOC(CC(NC(=O)C(C(C)C)N(C)C(=O)C3(F)CCN(C(=O)C#CC(C)(C)N(C)C)CC3)C(=O)N3CCCC(N3)C(=O)OCC(C)(C)C2)C1 ?
39.4

This collection of values is drawn from PubChem BioAssay AID2060891.
